Biological target: T1, human neonatal Fc receptor (hFcRn) (human, UniProt P55899 24-290; P61769 21-119)
T1 construct: Biotinylated in the ELISA, Octet and yeast assays; also called human FcRn; huFcRn
T1 sequence (P55899 24-290 limits assumed, chain 1 of 2): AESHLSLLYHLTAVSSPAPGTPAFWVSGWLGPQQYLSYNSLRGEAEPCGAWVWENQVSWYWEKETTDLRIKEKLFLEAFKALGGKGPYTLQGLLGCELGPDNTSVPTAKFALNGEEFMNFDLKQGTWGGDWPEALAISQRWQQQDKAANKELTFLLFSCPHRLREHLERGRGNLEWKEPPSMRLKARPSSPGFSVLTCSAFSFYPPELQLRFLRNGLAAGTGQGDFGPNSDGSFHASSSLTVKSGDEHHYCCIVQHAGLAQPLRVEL
T1 sequence (P61769 21-119 limits assumed, chain 2 of 2): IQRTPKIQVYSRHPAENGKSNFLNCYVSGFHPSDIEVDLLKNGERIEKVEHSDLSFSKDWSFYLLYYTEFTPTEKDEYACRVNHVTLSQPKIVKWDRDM
Experiment: phage ELISA pH 6;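 further: higher score means stronger binding and above about 3 to 5 exceeds background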
measurement name: ELISA score

Need ELISA score, item L5 isolate with insertion SEQ ID NO: 415 (other) EPKSCDKTHTCPPCPAPELLGGPSVFLFPPKPKDTLMISRTPEVTCVVVDVSHEDPEVKFNWYVDGVEVHNAKTKPREEQYNSTYRVVSVLTVLHQDWLNGKEYKCKVSNKALPAPIEKTISKAKGQPREPQVYTLPPSRDELTKNQVSLTCLVKGFYPSDIAVEWESNGGCYITQKLCGGGQPENNYKTTPPVLDSDGSFFLYSKLTVDKSRWQQGNVFSCSVMHEALHNHYTQKSLSLSPGK
63.6

Would you kindly repeat that for L5 isolate with insertion SEQ ID NO: 456 (other) EPKSCDKTHTCPPCPAPELLGGPSVFLFPPKPKDTLMISRTPEVTCVVVDVSHEDPEVKFNWYVDGVEVHNAKTKPREEQYNSTYRVVSVLTVLHQDWLNGKEYKCKVSNKALPAPIEKTISKAKGQPREPQVYTLPPSRDELTKNQVSLTCLVKGFYPSDIAVEWESNGGCYPQKEICGGGQPENNYKTTPPVLDSDGSFFLYSKLTVDKSRWQQGNVFSCSVMHEALHNHYTQKSLSLSPGK ?
49.8

Would you kindly repeat that for L5 isolate with insertion SEQ ID NO: 423 (other) EPKSCDKTHTCPPCPAPELLGGPSVFLFPPKPKDTLMISRTPEVTCVVVDVSHEDPEVKFNWYVDGVEVHNAKTKPREEQYNSTYRVVSVLTVLHQDWLNGKEYKCKVSNKALPAPIEKTISKAKGQPREPQVYTLPPSRDELTKNQVSLTCLVKGFYPSDIAVEWESNGGCNHEETFCGGGQPENNYKTTPPVLDSDGSFFLYSKLTVDKSRWQQGNVFSCSVMHEALHNHYTQKSLSLSPGK ?
60.2
